These data points were gathered from PubChem BioAssay (NCI).

System: TK-10 renal
Assay: NCI-60 one-dose screen, 48 h (100 = growth as untreated, 0 = no growth, -100 = all killed)
Details: 10 µM unless noted
This is part of a sample that, as a whole, favours compounds with a hit. Of some 83,000 tested, about 20% had one in any assay.
# maps each entry to its growth
Please reply with the bare figure in % and do not write the unit itself.

// below: answered molecules
MOLECULE	growth, %
CN(C)CCn1c2ccc(N)cc2c2nc3ccccc3nc21	60.2
CC1OC(O[C@@H]2[C@H](O)C(CO)OC(O[C@H]3COC(O[C@H]4CC[C@]5(C)[C@H]6CC[C@]78OC[C@@]9(CCC(C)(C)C[C@H]97)[C@H](O)C[C@@]8(C)[C@]6(C)CC[C@H]5C4(C)C)[C@@H](OC4OC(CO)[C@@H](O)[C@@H](O)[C@@H]4O)[C@@H]3O)[C@H]2OC2OC[C@@H](O)[C@@H](O)[C@@H]2O)[C@@H](O)[C@@H](O)[C@H]1O (stereo not given in full)	-93.8

Consider `Oc1ccc(CSc2nnc(-c3ccccc3)n2-c2ccccc2)c2cccnc12` . Its measured growth is 27.3

Consider `O=C(COc1cccc2cccnc12)Nc1ccc(C(=O)/C=C/c2ccc(Cl)cc2)cc1` . Its measured growth is 104

Consider `COc1cc(CNC(=O)/C=C/c2ccccc2)ccc1OCC(=O)NO` . Its measured growth is 102
